Task for the reader: assign each of the following compounds its reported growth inhibition.
Assay: NCI Yeast Anticancer Drug Screen. Data for the mlh1 rad18 strain (AID 175)
Details: S. cerevisiae mlh1 rad18 strain growth inhibition; at 50.0 µM; active compounds read high
This is part of a sample that, as a whole, favours compounds with a hit. Of some 79,000 tested, about 15% had one in any assay. The source made the active and inactive calls. No stated cut-off is given here; in the data, active means growth inhibition above about 70%; inactive means the rest.

The examples below pair each entry with its known result.
compound: O=C1c2cccc3cc([N+](=O)[O-])cc(c23)C(=O)N1C(Cc1ccccc1)c1ccccc1 (configuration not stated)
growth inhibition: 19.1% (inactive)

compound: Cc1cnc(Sc2ncccc2[N+](=O)[O-])nc1
growth inhibition: 6.7% (inactive)

compound: Cc1ccc(S(=O)(=O)N/N=c2/sc3ccccc3n2C)cc1
growth inhibition: -22.3% (inactive)

compound: Cc1ccc(N=Nc2ccc(N)cc2C)c(S(N)(=O)=O)c1
growth inhibition: 49% (inactive)

compound: Cc1ccc(O)c(O)c1
growth inhibition: 23.9% (inactive)

Take each entry in turn and give its growth inhibition.
1. CC1OC(n2cc(Cl)c(=O)[nH]c2=O)C=C(OC(=O)c2ccccc2)C1=O (configuration not stated)
2. NC(=O)c1ccc(Cl)cc1C(N)=O
3. C=CCNC(=S)N1c2ccccc2NC(=O)CC1C (configuration not stated)
4. O=C1C=C(Nc2cc(Cl)ccc2Cl)c2ccccc2C1=O
5. O=C(O)CSCC(=O)c1ccccc1
6. Brc1ccc(Br)nc1

OUT:
-28.9% (inactive)
-2.25% (inactive)
-15.4% (inactive)
32.5% (inactive)
-16.6% (inactive)
-12.9% (inactive)

Take each entry in turn and give its growth inhibition.
1. Nc1ncnc2nc[nH]c12
2. CCCn1cnc2c(NN=O)ncnc21
3. CSC1=Nc2cc3c(cc2C(=O)N2C[C@H](O)CC12)OCO3 (some centres not stated)

OUT:
["-5.7% (inactive)", "-45.5% (inactive)", "-6.3% (inactive)"]

Take each entry in turn and give its growth inhibition.
1. NCCOCC(N)C(=O)O (configuration not stated)
2. CC1(C)S/C(=C\c2ccccc2)c2nc3ccccc3c(=O)n21
3. O=C1O/C(=C(\Br)c2cccc3ccccc23)c2ccccc21
4. Brc1cncc(Br)c1
5. N#CC1(C#N)CC1(C#N)C#N

OUT:
8.4% (inactive)
-21.4% (inactive)
-18.3% (inactive)
1.4% (inactive)
15.2% (inactive)

Data provenance is PubChem BioAssay (NCI).
